Tested on: SpTbr T-box DNA-binding domain (GST fusion);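 further: protein at 200 nM in PBS on universal double-stranded arrays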
Sequence: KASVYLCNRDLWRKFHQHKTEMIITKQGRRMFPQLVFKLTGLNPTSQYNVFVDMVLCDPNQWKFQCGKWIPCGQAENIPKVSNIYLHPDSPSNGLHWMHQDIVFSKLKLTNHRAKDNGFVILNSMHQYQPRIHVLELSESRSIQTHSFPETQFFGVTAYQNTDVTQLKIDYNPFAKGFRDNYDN
test.description: PBM E-score of 8-mer (E-score (dimensionless, -0.5 to 0.5)); Tbr is Tbrain of the sea star Patiria miniata (Pm) or the sea urchin Strongylocentrotus purpuratus (Sp); higher = stronger binding preference
assay.setup: the construct has about 5 more residues each side
In all, about 33,000 sequences were measured (“E-score (dimensionless, -0.5 to 0.5)”: median about -0.046, highest 2% from about 0.36 on). The sample as a whole holds a higher share of the highest values than the screen did.
reported.endpoint: PBM E-score of 8-mer
Give your answer as a number; write no unit.

Study these solved cases before continuing.
- sequence.chain: "CACGTGTC"
  PBM E-score of 8-mer: 0.391
- sequence.chain: "CGAAATCG"
  PBM E-score of 8-mer: 0.246
- sequence.chain: "AAGGTGCA"
  PBM E-score of 8-mer: 0.35

Proceed to the following item.
Suppose we examine the sequence "GAGGTGCA" ; what PBM E-score of 8-mer value has been reported?
0.338

Recorded values, source the supplement of paper PMC4166925.
